# test_target: T1, porcine CD163 with deletion of SRCR domain 5 on porcine alveolar macrophages (porcine, UniProt Q2VL90 47-1115)
# T1 construct: also called PAM CD163-d5; pPAMΔ5 domain
# T1 sequence: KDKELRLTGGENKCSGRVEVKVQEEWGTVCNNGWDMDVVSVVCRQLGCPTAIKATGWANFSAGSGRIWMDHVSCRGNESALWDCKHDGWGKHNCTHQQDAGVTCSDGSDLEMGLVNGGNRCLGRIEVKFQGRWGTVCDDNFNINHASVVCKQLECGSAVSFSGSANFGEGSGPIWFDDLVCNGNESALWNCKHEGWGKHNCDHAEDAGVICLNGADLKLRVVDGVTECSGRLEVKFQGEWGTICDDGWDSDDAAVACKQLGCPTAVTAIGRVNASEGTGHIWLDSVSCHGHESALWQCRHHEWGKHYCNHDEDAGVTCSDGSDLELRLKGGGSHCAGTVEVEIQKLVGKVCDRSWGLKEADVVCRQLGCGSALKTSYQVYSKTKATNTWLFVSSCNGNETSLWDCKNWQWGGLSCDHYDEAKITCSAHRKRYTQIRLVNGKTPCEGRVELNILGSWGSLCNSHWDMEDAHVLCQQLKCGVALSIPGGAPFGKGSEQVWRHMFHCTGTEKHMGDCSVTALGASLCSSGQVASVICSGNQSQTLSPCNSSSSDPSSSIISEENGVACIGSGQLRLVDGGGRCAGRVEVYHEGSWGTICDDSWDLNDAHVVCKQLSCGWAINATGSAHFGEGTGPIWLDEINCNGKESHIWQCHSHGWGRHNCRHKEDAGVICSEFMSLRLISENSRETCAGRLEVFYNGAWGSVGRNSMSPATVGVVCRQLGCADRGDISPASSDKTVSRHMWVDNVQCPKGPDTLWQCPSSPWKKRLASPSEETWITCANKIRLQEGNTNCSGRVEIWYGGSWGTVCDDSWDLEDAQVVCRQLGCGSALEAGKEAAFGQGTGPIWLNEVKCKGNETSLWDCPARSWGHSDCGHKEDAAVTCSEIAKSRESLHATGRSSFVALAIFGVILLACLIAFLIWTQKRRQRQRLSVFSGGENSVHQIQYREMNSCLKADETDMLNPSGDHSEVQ
# protocol_details: flow cytometry, PAM CD163-d5
readout: % Binding

Below, each entry is followed by its recorded % Binding result.
| binder | % Binding |
| --- | --- |
| VHH 008 (1H01) (VHH, Llama single domain antibody; also called 78(#8); VHCDR3 78(#8); not shown: tags: c-myc tag in periplasmic extract (ELISA, FACS); FLAG and His tags in purified VHH (SPR, infection assays)) VHH: QVQLVESGGGLVQAGGSLRLSCAASGRTFGTYSMGWFRQAPGKEREFVAAHRWSGSAYYAEHADSVEGRFTISRDYAKNMLYLQMNSLKHEDTAVYYCAAGVGSEAQYRYWGRGTQVTVSS | 2.7% |
| VHH 015 (2G01) (VHH, Llama single domain antibody; also called 150(#15); VHCDR3 150(#15); not shown: tags: c-myc tag in periplasmic extract (ELISA, FACS); FLAG and His tags in purified VHH (SPR, infection assays)) VHH: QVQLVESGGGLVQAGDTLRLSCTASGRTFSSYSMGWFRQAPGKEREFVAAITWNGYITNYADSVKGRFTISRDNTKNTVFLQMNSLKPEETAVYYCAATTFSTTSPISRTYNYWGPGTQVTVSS | 1.6% |
| VHH 002 (1B04) (VHH, Llama single domain antibody; also called 76(#2); VHCDR3 76(#2); not shown: tags: c-myc tag in periplasmic extract (ELISA, FACS); FLAG and His tags in purified VHH (SPR, infection assays)) VHH: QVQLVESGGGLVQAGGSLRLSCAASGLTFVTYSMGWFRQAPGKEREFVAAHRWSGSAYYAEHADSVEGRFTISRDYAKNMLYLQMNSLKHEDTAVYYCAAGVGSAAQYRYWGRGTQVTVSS | 1.74% |

# ---- query binder ----
query: Recorded % Binding of VHH 001 (1B02) (VHH, Llama single domain antibody; also called 144(#1); VHCDR3 144(#1); not shown: tags: c-myc tag in periplasmic extract (ELISA, FACS); FLAG and His tags in purified VHH (SPR, infection assays)) VHH: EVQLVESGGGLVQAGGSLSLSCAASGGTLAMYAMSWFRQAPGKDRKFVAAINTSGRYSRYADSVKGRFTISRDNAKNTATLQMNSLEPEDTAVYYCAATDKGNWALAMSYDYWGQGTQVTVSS , please.
result: 2.15%
